Source: the RNAGym collection of RNA variant scans (doi:10.1073/pnas.2313332121)

B1: TPR t1 (parent)
chain: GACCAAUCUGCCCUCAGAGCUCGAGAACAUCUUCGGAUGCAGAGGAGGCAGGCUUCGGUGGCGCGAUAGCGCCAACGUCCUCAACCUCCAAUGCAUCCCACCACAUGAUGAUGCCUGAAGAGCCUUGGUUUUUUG

Variants of: B1
Assay: polymerase ribozyme fitness, log enrichment relative to wild type (log ratio); higher = more active; in vitro selection for triplet polymerase activity
Below, each entry is listed alongside its reported polymerase ribozyme fitness (log ratio).

[
  {
    "Var": "G47U A95U",
    "polymerase ribozyme fitness (log ratio)": -1.91
  },
  {
    "Var": "G45U C97U U112A",
    "polymerase ribozyme fitness (log ratio)": -0.0204
  },
  {
    "Var": "G52A G113A",
    "polymerase ribozyme fitness (log ratio)": -1.37
  },
  {
    "Var": "A46U C62G",
    "polymerase ribozyme fitness (log ratio)": -3.18
  },
  {
    "Var": "C11A G69U C94U U130A",
    "polymerase ribozyme fitness (log ratio)": -1.6
  },
  {
    "Var": "C13U G71A",
    "polymerase ribozyme fitness (log ratio)": -0.0397
  },
  {
    "Var": "U7C G17C C115A",
    "polymerase ribozyme fitness (log ratio)": 0.0409
  },
  {
    "Var": "U7C U112C G113U G135A",
    "polymerase ribozyme fitness (log ratio)": -3.06
  },
  {
    "Var": "U9G C13A U59A C72A",
    "polymerase ribozyme fitness (log ratio)": -1.53
  },
  {
    "Var": "C97U A119U C123A",
    "polymerase ribozyme fitness (log ratio)": -1.43
  },
  {
    "Var": "C64U G120A G135A",
    "polymerase ribozyme fitness (log ratio)": 0.278
  },
  {
    "Var": "C4G C64U U106C C115G",
    "polymerase ribozyme fitness (log ratio)": -5.73
  },
  {
    "Var": "A43C G63C",
    "polymerase ribozyme fitness (log ratio)": -3.41
  },
  {
    "Var": "C3U C72U U106C",
    "polymerase ribozyme fitness (log ratio)": -1.21
  },
  {
    "Var": "C8G G36C A84U C115U G122U",
    "polymerase ribozyme fitness (log ratio)": -1.01
  },
  {
    "Var": "A91C U129A",
    "polymerase ribozyme fitness (log ratio)": -2.78
  },
  {
    "Var": "U59C C102A C115G",
    "polymerase ribozyme fitness (log ratio)": -4.44
  },
  {
    "Var": "G71A C123A",
    "polymerase ribozyme fitness (log ratio)": -0.22
  },
  {
    "Var": "A16U A29U U30A A41C C49G A90G G120C",
    "polymerase ribozyme fitness (log ratio)": -6.59
  },
  {
    "Var": "A2U C102U G113A U129A",
    "polymerase ribozyme fitness (log ratio)": -2.88
  },
  {
    "Var": "C49G G77A U112G",
    "polymerase ribozyme fitness (log ratio)": -0.318
  },
  {
    "Var": "U59G U92A",
    "polymerase ribozyme fitness (log ratio)": -3.4
  }
]
